What SPOT intensity was measured for each of the following?
Biological target: T1, Boi1, P38041
T1 sequence (P38041 1-86, looked up): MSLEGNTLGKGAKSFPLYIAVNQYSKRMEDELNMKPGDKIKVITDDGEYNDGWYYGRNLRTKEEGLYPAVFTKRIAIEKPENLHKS
Assay: SPOT array
Details: median of control spots 1162
One number for each entry.

Answered cases to consult:
>>> print(df.to_string())
            binder  test_value
0  QTREPNEPPPPSPAM           0
1  RKQRSIPLSPIVPES           1
2  QPWTDQFEKLEKEVS           0
3  GQYRRTIVIPRRFFT          30
4  ISPPASPPPEFDFSK           0
5  YVRRRPRVRLEPLLS          13

Give recorded SPOT intensity. `DKSRPPRPPPKPLHL`
0

Just for reference, paper PMC2756588 is where these values come from.
